This section presents binders with their documented EC50 group, cGMP in GTM-3 cells values.
# ASSAY SYSTEM: T1, natriuretic peptide receptor-B (human)
# T1 chain: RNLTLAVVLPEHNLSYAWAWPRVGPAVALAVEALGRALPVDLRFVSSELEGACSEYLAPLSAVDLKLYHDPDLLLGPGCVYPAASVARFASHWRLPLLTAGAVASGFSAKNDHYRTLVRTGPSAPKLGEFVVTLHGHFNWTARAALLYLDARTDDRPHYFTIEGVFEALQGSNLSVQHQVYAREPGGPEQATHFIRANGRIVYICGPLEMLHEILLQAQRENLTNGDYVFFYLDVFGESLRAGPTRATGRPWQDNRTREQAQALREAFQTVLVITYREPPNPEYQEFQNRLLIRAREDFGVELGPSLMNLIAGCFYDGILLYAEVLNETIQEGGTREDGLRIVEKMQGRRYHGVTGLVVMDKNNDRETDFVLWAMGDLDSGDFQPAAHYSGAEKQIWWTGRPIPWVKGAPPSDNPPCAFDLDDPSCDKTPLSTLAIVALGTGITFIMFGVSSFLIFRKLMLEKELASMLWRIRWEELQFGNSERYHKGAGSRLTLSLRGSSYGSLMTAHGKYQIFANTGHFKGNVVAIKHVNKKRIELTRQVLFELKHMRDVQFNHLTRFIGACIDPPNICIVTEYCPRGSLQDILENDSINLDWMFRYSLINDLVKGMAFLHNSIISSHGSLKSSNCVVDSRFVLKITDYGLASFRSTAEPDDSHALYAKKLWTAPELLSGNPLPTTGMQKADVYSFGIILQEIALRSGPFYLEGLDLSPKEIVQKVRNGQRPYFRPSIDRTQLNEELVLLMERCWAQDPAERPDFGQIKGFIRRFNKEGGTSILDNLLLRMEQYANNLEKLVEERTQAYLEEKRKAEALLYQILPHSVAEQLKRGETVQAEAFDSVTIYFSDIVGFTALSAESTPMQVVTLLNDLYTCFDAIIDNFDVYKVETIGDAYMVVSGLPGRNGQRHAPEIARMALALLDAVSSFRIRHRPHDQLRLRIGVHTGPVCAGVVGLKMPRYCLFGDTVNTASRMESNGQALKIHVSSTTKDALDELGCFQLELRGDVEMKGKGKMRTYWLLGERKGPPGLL
# TEST: cell-based or functional assay
Square brackets hold non-standard residues; d marks the D form. Ends that are not written are not given here. * marks the point of attachment. ξ: configuration not given here. Phe(3-CF3) = N[C@@H](Cc1cccc(C(F)(F)F)c1)C(=O)O; Hyp = O=C(O)[C@@H]1C[C@@H](O)CN1; NMeL = CN[C@@H](CC(C)C)C(=O)O; ξαMeL = CC(C)CC(C)(N)C(=O)O; Ac6c = NC1(C(=O)O)CCCCC1; Octanoyl = CCCCCCCC(=O)*; Hexanoyl = CCCCCC(=O)*; Occ = octanoic acid

| BINDER | EC50 group, cGMP in GTM-3 cells |
| --- | --- |
| Hexanoyl-G[dA]FGLKLDRI-NH2 [JAL-0631] | ≤ 15 µM |
| Octanoyl-[dA]F[dR]L[Hyp][NMeL]DR[Ac6c]-NH2 [JAL-1359] | ≤ 5 µM |
| [Occ]A[Phe(3-CF3)]GLPLDRI-NH2 (not fully specified (residue 2); printed as Occ-ala-Mtf-Gly-Leu-Pro-Leu-Asp-Arg-Ile-NH2) [JAL-1005] | ≤ 15 µM |
| Octanoyl-[dA]F[dR]L[Hyp][NMeL]DRI-NH2 [JAL-1086] | ≤ 1 µM |
| Octanoyl-AFLL[Hyp][NMeL]DR[ξαMeL]-NH2 (also: lower-case ala, leu: meaning not given here) [JAL-1414] | ≤ 1 µM |
